Please go through the items and note down their kon.
- studyTarget: recombinant human KLK5 (human) (UniProt Q9Y337)
- Sequence (Q9Y337 67-293): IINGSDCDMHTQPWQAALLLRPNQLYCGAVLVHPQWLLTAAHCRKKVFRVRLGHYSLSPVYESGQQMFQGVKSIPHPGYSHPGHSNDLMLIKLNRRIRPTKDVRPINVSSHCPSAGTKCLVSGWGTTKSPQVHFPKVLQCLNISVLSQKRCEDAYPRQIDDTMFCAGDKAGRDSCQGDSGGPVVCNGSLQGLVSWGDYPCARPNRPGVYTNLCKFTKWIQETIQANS
- experimentalDetails: SPR BIAcore T200, antibody captured by anti-human Fc, human KLK5 as analyte, 37 C
Numbers only, in M⁻¹ s⁻¹.

>>> reportedvalue("hu10C5.L5H28 (antibody, V domains shown) VH: EVQLVESGGGLVQPGGSLRLSCAASGFSLSSYGVTWVRQAPGKGLEWIGYITSNYGVSYYASWAKSRSTISRDTSKNTVYLQMGSLRAEDMAVYYCARENPDYGYAYDAWGQGTTVTVSS VL: AIRMTQSPSSFSASTGDRVTITCQASESISNELSWYQQKPGKAPKLLIYYASTLASGVPSRFSGSGSGTDFTLTISSLQPEDFATYYCAQGFGSSGVENVFGGGTKVEIK")
"1.9e+07"
>>> reportedvalue("hu9H5.L4H14 (antibody, V domains shown) VH: EVQLVESGGGLIQPGGSLRLSCAASGFSLSSYGVSWVRQAPGKGLEYVGFIGSGGFAYYASWAKSRFTISRDNSKNTLYLQMNSLRAEDTAVYYCARDDVGGGKSLDIWGQGTLVTVSS VL: DIQMTQSPSSLSASVGDRVTITCQASQSISSYLSWYQQKPGKAPKLLIYSASTLASGVPSRFSGSGSGTDFTLTISSLQPEDFATYYCHQDYTSSNVDNTFGGGTKVEIK")
810000

We next turn to a different binder, shown below.
(Q) Look up kon for this binder: hu3-3F5.L5H19 (antibody, V domains shown) VH: EVQLLESGGGLVQPGGSLRLSCAVSGFSLNDYGVSWVRQAPGKGLEWVGAIGSSGVAWYANFAKGRFTISRDNSKNTLYLQMNSLRAEDTAVYYCARDRDYGYRADDATSGMDLWGRGTLVTVSS VL: AIRMTQSPSSFSASTGDRVTITCQASESIGNALAWYQQKPGKAPKLLIYDASDLASGVPSRFSGSGSGTDFTLTISSLQPEDFATYYCQQGDSHNNVDNIFGGGTKVEIK
(A) 4.84e+07
